# Test summary: NCI Yeast Anticancer Drug Screen. Data for the mec2-1 strain (AID 157)
# Condition summary: S. cerevisiae mec2-1 strain, at 50.0 µM, active compounds read high
Compounds without any hit were thinned out: in the full panel of roughly 79,000, 15% have a hit.
Measured parameter: growth inhibition (%)
Give bare numbers, in %.

Some compounds with known growth inhibition results, for comparison:
>  <Compound>
CN(C)CC(C(N)=O)C(N)=O

>  <growth inhibition (%)>
-18.8

$$$$
>  <Compound>
C/C=C(\C)CCC(C)(O)CC (stereo unspecified)

>  <growth inhibition (%)>
-15.6

$$$$
>  <Compound>
O=C(/C=C/c1ccccc1)NC(=S)Nc1cc(Cl)ccc1O

>  <growth inhibition (%)>
7.8

$$$$
>  <Compound>
Cc1ccccc1/C=N\N=C\c1ccco1

>  <growth inhibition (%)>
-6.5

$$$$
>  <Compound>
O=C(O)c1ccccc1C(=O)CC(O)(C(F)(F)F)C(F)(F)F

>  <growth inhibition (%)>
9.9

$$$$

Can you give me growth inhibition for all of these, one by one?
1. Cc1[nH]c(=O)[nH]c(=O)c1NC=O
2. CCCCCCCCCCCCCCCC[N+]1(C)CCC[N+](C)(CCCCCCCCCCCCCCCC)CC1 (stereo unspecified)
3. CC(C)CC1NC(=O)OC1=O (stereo unspecified)
4. CCOC(=O)C1Cc2c(n(C3CCCCC3)c(=O)n(C)c2=O)OC1c1ccccc1 (stereo unspecified)
5. COc1cc(C=O)cc(OC)c1

stdout:
1. -28.3
2. -21
3. 0.9
4. -5.15
5. -49.3
